# Test system: MDA-231 cancer cells
# experimental_protocol: Inhibition of proliferation assay: cell confluence (IncuCyte live cell imaging)
# Assay type: cell-based
# cond: compound tested at 10 μM, images every 3 h over 4-5 d, relative confluence normalised to time zero
Where a name gives a salt, the structure may show the parent alone.

{"molecule": "C[C@H]1c2c(NC(=O)CCCCCCCCCCC[P+](c3ccccc3)(c3ccccc3)c3ccccc3)ccc(O)c2C(=O)C2=C(O)[C@]3(O)C(=O)C(C(N)=O)=C(O)[C@@H](N(C)C)[C@@H]3[C@@H](O)[C@@H]21 [Example 13, trifluoroacetate]", "result_units": "%", "% Confluence": 53.7}
{"molecule": "C[C@H]1c2cccc(O)c2C(=O)C2=C(O)[C@]3(O)C(=O)C(C(N)=O)=C(O)[C@@H](N(C)C)[C@@H]3[C@@H](O)[C@@H]21 [Doxycycline, reference compound]", "result_units": "%", "% Confluence": 98.7}

----------
# Tested on: MDA-231 cancer cells
# experimental_protocol: Inhibition of proliferation assay: cell confluence (IncuCyte live cell imaging)
# Type: cell-based
# cond: compound tested at 10 μM, images every 3 h over 4-5 d, relative confluence normalised to time zero
Structures can show the parent of a compound that is named as a salt.
Under this convention, y denotes % Confluence strictly below 80% and n denotes % Confluence at or above 80%.

{"compound": "C[C@H]1c2ccc(CNC(=O)CCCCCCCCC[P+](c3ccccc3)(c3ccccc3)c3ccccc3)c(O)c2C(=O)C2=C(O)[C@]3(O)C(=O)C(C(N)=O)=C(O)[C@@H](N(C)C)[C@@H]3[C@@H](O)[C@@H]21 [Example 5, trifluoroacetate]", "tested_on": "MDA-231 cancer cells", "group": "y"}
{"compound": "C[C@H]1c2ccc(NC(=O)CCCCCCCCCC[P+](c3ccccc3)(c3ccccc3)c3ccccc3)c(O)c2C(=O)C2=C(O)[C@]3(O)C(=O)C(C(N)=O)=C(O)[C@@H](N(C)C)[C@@H]3[C@@H](O)[C@@H]21 [Example 6, trifluoroacetate]", "tested_on": "MDA-231 cancer cells", "group": "y"}
{"compound": "C[C@H]1c2c(NC(=O)CCCCCCC[P+](c3ccccc3)(c3ccccc3)c3ccccc3)ccc(O)c2C(=O)C2=C(O)[C@]3(O)C(=O)C(C(N)=O)=C(O)[C@@H](N(C)C)[C@@H]3[C@@H](O)[C@@H]21 [Example 4, trifluoroacetate]", "tested_on": "MDA-231 cancer cells", "group": "n"}
{"compound": "C[C@H]1c2ccc(NC(=O)CCNC(=O)CCCC[P+](c3ccccc3)(c3ccccc3)c3ccccc3)c(O)c2C(=O)C2=C(O)[C@]3(O)C(=O)C(C(N)=O)=C(O)[C@@H](N(C)C)[C@@H]3[C@@H](O)[C@@H]21 [Example 12, trifluoroacetate]", "tested_on": "MDA-231 cancer cells", "group": "n"}
{"compound": "C[C@H]1c2ccc(NC(=O)CCCCCCCCC[P+](c3ccccc3)(c3ccccc3)c3ccccc3)c(O)c2C(=O)C2=C(O)[C@]3(O)C(=O)C(C(N)=O)=C(O)[C@@H](N(C)C)[C@@H]3[C@@H](O)[C@@H]21 [Example 7, trifluoroacetate]", "tested_on": "MDA-231 cancer cells", "group": "y"}
{"compound": "C[C@H]1c2ccc(CNC(=O)CCCCC[P+](c3ccccc3)(c3ccccc3)c3ccccc3)c(O)c2C(=O)C2=C(O)[C@]3(O)C(=O)C(C(N)=O)=C(O)[C@@H](N(C)C)[C@@H]3[C@@H](O)[C@@H]21 [Example 16, trifluoroacetate]", "tested_on": "MDA-231 cancer cells", "group": "n"}
{"compound": "C[C@H]1c2ccc(NC(=O)CNC(=O)CCC[P+](c3ccccc3)(c3ccccc3)c3ccccc3)c(O)c2C(=O)C2=C(O)[C@]3(O)C(=O)C(C(N)=O)=C(O)[C@@H](N(C)C)[C@@H]3[C@@H](O)[C@@H]21 [Example 9, trifluoroacetate]", "tested_on": "MDA-231 cancer cells", "group": "n"}
{"compound": "C[C@H]1c2ccc(NC(=O)CNC(=O)CCCCC[P+](c3ccccc3)(c3ccccc3)c3ccccc3)c(O)c2C(=O)C2=C(O)[C@]3(O)C(=O)C(C(N)=O)=C(O)[C@@H](N(C)C)[C@@H]3[C@@H](O)[C@@H]21 [Example 8, trifluoroacetate]", "tested_on": "MDA-231 cancer cells", "group": "n"}

----------
# System: MDA-231 cancer cells
# experimental_protocol: Inhibition of proliferation assay: cell confluence (IncuCyte live cell imaging)
# Assay type: cell-based
# cond: compound tested at 10 μM, images every 3 h over 4-5 d, relative confluence normalised to time zero
Where a name gives a salt, the structure may show the parent alone.
Listing: % Confluence of selected molecules

{"molecule": "C[C@H]1c2ccc(NC(=O)CCNC(=O)CCCCCCCCC[P+](c3ccccc3)(c3ccccc3)c3ccccc3)c(O)c2C(=O)C2=C(O)[C@]3(O)C(=O)C(C(N)=O)=C(O)[C@@H](N(C)C)[C@@H]3[C@@H](O)[C@@H]21 [Example 11, trifluoroacetate]", "% Confluence [%]": 45}
{"molecule": "C[C@H]1c2ccc(NC(=O)CCCCC[P+](c3ccccc3)(c3ccccc3)c3ccccc3)c(O)c2C(=O)C2=C(O)[C@]3(O)C(=O)C(C(N)=O)=C(O)[C@@H](N(C)C)[C@@H]3[C@@H](O)[C@@H]21.[Cl-] [Example 18]", "% Confluence [%]": 59.1}
{"molecule": "C[C@H]1c2ccc(NC(=O)CCCCCCCC[P+](c3ccccc3)(c3ccccc3)c3ccccc3)c(O)c2C(=O)C2=C(O)[C@]3(O)C(=O)C(C(N)=O)=C(O)[C@@H](N(C)C)[C@@H]3[C@@H](O)[C@@H]21.[Cl-] [Example 20]", "% Confluence [%]": 25.2}
{"molecule": "C[C@H]1c2ccc(NC(=O)CCNC(=O)CCCCCCC[P+](c3ccccc3)(c3ccccc3)c3ccccc3)c(O)c2C(=O)C2=C(O)[C@]3(O)C(=O)C(C(N)=O)=C(O)[C@@H](N(C)C)[C@@H]3[C@@H](O)[C@@H]21 [Example 10, trifluoroacetate]", "% Confluence [%]": 92.2}
{"molecule": "C[C@H]1c2c(NC(=O)CCCCCCCCC[P+](c3ccccc3)(c3ccccc3)c3ccccc3)ccc(O)c2C(=O)C2=C(O)[C@]3(O)C(=O)C(C(N)=O)=C(O)[C@@H](N(C)C)[C@@H]3[C@@H](O)[C@@H]21 [Example 14, trifluoroacetate]", "% Confluence [%]": 87.9}
{"molecule": "C[C@H]1c2c(NC(=O)CCNC(=O)CCCCCCC[P+](c3ccccc3)(c3ccccc3)c3ccccc3)ccc(O)c2C(=O)C2=C(O)[C@]3(O)C(=O)C(C(N)=O)=C(O)[C@@H](N(C)C)[C@@H]3[C@@H](O)[C@@H]21 [Example 15, trifluoroacetate]", "% Confluence [%]": 112.8}
{"molecule": "C[C@H]1c2ccc(NC(=O)CCCCCCC[P+](c3ccccc3)(c3ccccc3)c3ccccc3)c(O)c2C(=O)C2=C(O)[C@]3(O)C(=O)C(C(N)=O)=C(O)[C@@H](N(C)C)[C@@H]3[C@@H](O)[C@@H]21 [Example 2, formate]", "% Confluence [%]": 81.2}
{"molecule": "C[C@H]1c2ccc(NC(=O)CCCCCCCCCCC[P+](c3ccccc3)(c3ccccc3)c3ccccc3)c(O)c2C(=O)C2=C(O)[C@]3(O)C(=O)C(C(N)=O)=C(O)[C@@H](N(C)C)[C@@H]3[C@@H](O)[C@@H]21 [Example 1, formate]", "% Confluence [%]": 27.1}
